Exercise: for every item that follows, state its recorded log10(IC50).
Molecular target: recombinant human MGAT2 (Homo sapiens (Human), UniProt Q3SYC2)
Sequence (Q3SYC2 whole entry): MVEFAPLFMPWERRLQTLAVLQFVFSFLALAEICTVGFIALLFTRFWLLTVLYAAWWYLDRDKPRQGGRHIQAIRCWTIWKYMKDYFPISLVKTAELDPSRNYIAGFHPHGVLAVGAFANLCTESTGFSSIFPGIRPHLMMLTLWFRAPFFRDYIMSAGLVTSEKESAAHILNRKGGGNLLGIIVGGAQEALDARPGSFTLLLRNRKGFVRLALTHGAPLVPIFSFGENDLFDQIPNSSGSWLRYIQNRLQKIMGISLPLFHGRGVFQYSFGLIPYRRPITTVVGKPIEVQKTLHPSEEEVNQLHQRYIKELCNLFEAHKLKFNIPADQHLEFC
Test: Measurement of human MGAT2 inhibitory activity
Assay type: biochemical
Conditions: read-out: IC50 (concentration exhibiting 50% enzyme inhibition), Table 53
Answers are given as log10 of IC50 in nM.

recombinant human MGAT2 (Homo sapiens (Human), UniProt Q3SYC2) data for CS(=O)(=O)CC(=O)Nc1c2c(nn1-c1ccc(C#N)cn1)CC1(CN(c3nc(C(F)(F)F)cs3)C1)NC2=O ; its log10(IC50): 1.65

Bench note, recombinant human MGAT2 (Homo sapiens (Human), UniProt Q3SYC2): entry N#Cc1ccc(-n2nc3c(c2C(=O)NC2(C#N)CC2)C(=O)N[C@@]2(CCc4cc(OCC(F)(F)F)ccc42)C3)nc1 , its log10(IC50) = 1.48

Hey, recombinant human MGAT2 (Homo sapiens (Human), UniProt Q3SYC2) data for N#Cc1ccc(-n2nc3c(c2C(=O)NCC2(C(F)F)CC2)C(=O)N[C@@]2(CCc4cc(OCC(F)(F)F)ccc42)C3)nc1 : log10(IC50) came out at 0.54

Record for Cc1ccc(-n2nc3c(c2NC(=O)CS(C)(=O)=O)C(=O)N[C@@]2(CCOc4cc(OCC(F)F)ccc42)C3)nc1 under target or system recombinant human MGAT2 (Homo sapiens (Human), UniProt Q3SYC2): log10(IC50) reported as 0.41

Tested system recombinant human MGAT2 (Homo sapiens (Human), UniProt Q3SYC2); log10(IC50) recorded for Cc1cc(-n2nc3c(c2NC(=O)CS(C)(=O)=O)C(=O)N[C@@]2(CCOc4cc(OCC(F)(F)F)ccc42)C3)no1 was 0.12
